system tested: T1, human CCR8 (human, UniProt P51685 1-355)
T1 construct: whole, on cells; construct used for the overexpressing cell lines is not described; also called hCCR8
T1 sequence (P51685 whole entry): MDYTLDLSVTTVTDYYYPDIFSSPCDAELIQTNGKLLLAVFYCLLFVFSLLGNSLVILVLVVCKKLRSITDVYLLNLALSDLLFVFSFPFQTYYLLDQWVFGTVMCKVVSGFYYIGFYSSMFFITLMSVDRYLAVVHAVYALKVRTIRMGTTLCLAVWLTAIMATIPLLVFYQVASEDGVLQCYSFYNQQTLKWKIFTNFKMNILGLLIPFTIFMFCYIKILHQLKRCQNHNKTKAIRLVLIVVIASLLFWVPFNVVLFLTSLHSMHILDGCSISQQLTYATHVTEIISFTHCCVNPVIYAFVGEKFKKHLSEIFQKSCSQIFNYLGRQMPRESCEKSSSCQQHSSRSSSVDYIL
assay: FACS, CHO-K1-hCCR8 cells
endpoint: EC50

binder="PR004333 (antibody, human IgG1, kappa, V domains shown, heavy-chain semi-humanized variant of PR004128, IgG1 with DE mutation) VH: EVQLVESGGGLVQPGGSLRLSCAASGFTFNTYAMNWVRQAPGKGLEWVSRIRSKSNNYATYYADSVKDRFTISRDDSKSTLYLQMNSLRAEDTAVYYCVRGKENGNYYAMDFWGQGTTVTVSS VL: DIVMTQAAPSVPVTPGESVSISCRSSKSLLHSNGKIYLYWFLQRPGQSPQLLIYRMSNLASGVPDRFSGSGSGTAFTLRISRVEAEDVGVYYCMQHLEYPLTFGAGTKLEIKR" value_observed="0.91 nM"
binder="PR004338 (antibody, human IgG1, kappa, V domains shown, heavy-chain semi-humanized variant of PR004128, IgG1 with DE mutation) VH: EVQLVESGGGLVQPGGSLKLSCAASGFTFNTYAMNWVRQASGKGLEWVGRIRSKSNNYATYYADSVKDRFTISRDDSKSTLYLQMNSLKTEDTAVYYCVRGKENGNYYAMDYWGQGTTVTVSS VL: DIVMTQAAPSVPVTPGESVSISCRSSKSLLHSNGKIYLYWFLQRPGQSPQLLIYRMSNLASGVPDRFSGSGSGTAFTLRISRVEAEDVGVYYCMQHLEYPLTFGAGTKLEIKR" value_observed="0.72 nM"
binder="PR004342 (antibody, human IgG1, kappa, V domains shown) VH: EVQLVESGGGLVQPKGSLKLSCAASGFTFNTYAMNWVRQAPGKGLEWVARIRSKSNNYATYYADSVKDRFTISRDDSQSMLYLQMNNLKTEDTAMYYCVRGKENGNYYAMDFWGQGTSVTVSA VL: DIVMTQSPLSLPVTPGEPASISCRSSKSLLHSNGNTYLYWFLQKPGQSPQLLIYRMSNLASGVPDRFSGSGSGTDFTLKISRVEAEDVGVYYCMQHLEYPFTFGQGTKLEIKR" value_observed="0.8 nM"
